# run description: Plasma pharmacokinetics after single topical Felpreva at 2.5x and 5x dose multiples (Study 2)
# cond: European Shorthair (ESH), in vivo, topical or ocular, AUCinf, cats, Study 2, single topical Felpreva 5x, 0.74 ml/kg, n = 8, geometric mean

>  <molecule>
CC(C)C[C@H]1C(=O)O[C@H](Cc2ccc(N3CCOCC3)cc2)C(=O)N(C)[C@@H](CC(C)C)C(=O)O[C@H](C)C(=O)N(C)[C@@H](CC(C)C)C(=O)O[C@H](Cc2ccc(N3CCOCC3)cc2)C(=O)N(C)[C@@H](CC(C)C)C(=O)O[C@H](C)C(=O)N1C [Emodepside, emodepside]

>  <AUC(0-inf) [µg·h/mL]>
62.5

$$$$

* * *

# run description: Plasma pharmacokinetics after single topical Felpreva at 2.5x and 5x dose multiples (Study 2)
# cond: European Shorthair (ESH), in vivo, topical or ocular, T1/2, cats, Study 2, single topical Felpreva 2.5x, 0.37 ml/kg, n = 8, geometric mean

>  <molecule>
CC(C)C[C@H]1C(=O)O[C@H](Cc2ccc(N3CCOCC3)cc2)C(=O)N(C)[C@@H](CC(C)C)C(=O)O[C@H](C)C(=O)N(C)[C@@H](CC(C)C)C(=O)O[C@H](Cc2ccc(N3CCOCC3)cc2)C(=O)N(C)[C@@H](CC(C)C)C(=O)O[C@H](C)C(=O)N1C [Emodepside, emodepside]

>  <units label>
days

>  <half-life>
13.7

$$$$

* * *

# run description: in vivo
# cond: Domestic Shorthair, in vivo, iv, 0.2 mg/kg
readout type: AUC(0-t) (ng·h/mL)

>  <molecule>
CC(C)C[C@H]1C(=O)O[C@H](Cc2ccc(N3CCOCC3)cc2)C(=O)N(C)[C@@H](CC(C)C)C(=O)O[C@H](C)C(=O)N(C)[C@@H](CC(C)C)C(=O)O[C@H](Cc2ccc(N3CCOCC3)cc2)C(=O)N(C)[C@@H](CC(C)C)C(=O)O[C@H](C)C(=O)N1C [Emodepside, emodepside]

>  <value>
1500

$$$$

* * *

# run description: in vivo
# cond: Domestic Shorthair (DSH), topical or ocular

>  <compound>
CC(C)C[C@H]1C(=O)O[C@H](Cc2ccc(N3CCOCC3)cc2)C(=O)N(C)[C@@H](CC(C)C)C(=O)O[C@H](C)C(=O)N(C)[C@@H](CC(C)C)C(=O)O[C@H](Cc2ccc(N3CCOCC3)cc2)C(=O)N(C)[C@@H](CC(C)C)C(=O)O[C@H](C)C(=O)N1C [Emodepside, emodepside]

>  <units label>
h

>  <Tmax>
36

$$$$

* * *

# run description: in vivo
# cond: Domestic Shorthair, topical or ocular

>  <compound>
CC(C)C[C@H]1C(=O)O[C@H](Cc2ccc(N3CCOCC3)cc2)C(=O)N(C)[C@@H](CC(C)C)C(=O)O[C@H](C)C(=O)N(C)[C@@H](CC(C)C)C(=O)O[C@H](Cc2ccc(N3CCOCC3)cc2)C(=O)N(C)[C@@H](CC(C)C)C(=O)O[C@H](C)C(=O)N1C [Emodepside, emodepside]

>  <units label>
ng·h/mL

>  <AUC(0-t)>
20500

$$$$

* * *

# run description: in vivo
# cond: Domestic Shorthair, topical or ocular

>  <molecule>
CC(C)C[C@H]1C(=O)O[C@H](Cc2ccc(N3CCOCC3)cc2)C(=O)N(C)[C@@H](CC(C)C)C(=O)O[C@H](C)C(=O)N(C)[C@@H](CC(C)C)C(=O)O[C@H](Cc2ccc(N3CCOCC3)cc2)C(=O)N(C)[C@@H](CC(C)C)C(=O)O[C@H](C)C(=O)N1C [Emodepside, emodepside]

>  <Tmax [h]>
36.9

$$$$
